Molecular target: Serine/threonine-protein kinase ULK2 (Homo sapiens) (UniProt Q8IYT8)
Sequence (whole entry): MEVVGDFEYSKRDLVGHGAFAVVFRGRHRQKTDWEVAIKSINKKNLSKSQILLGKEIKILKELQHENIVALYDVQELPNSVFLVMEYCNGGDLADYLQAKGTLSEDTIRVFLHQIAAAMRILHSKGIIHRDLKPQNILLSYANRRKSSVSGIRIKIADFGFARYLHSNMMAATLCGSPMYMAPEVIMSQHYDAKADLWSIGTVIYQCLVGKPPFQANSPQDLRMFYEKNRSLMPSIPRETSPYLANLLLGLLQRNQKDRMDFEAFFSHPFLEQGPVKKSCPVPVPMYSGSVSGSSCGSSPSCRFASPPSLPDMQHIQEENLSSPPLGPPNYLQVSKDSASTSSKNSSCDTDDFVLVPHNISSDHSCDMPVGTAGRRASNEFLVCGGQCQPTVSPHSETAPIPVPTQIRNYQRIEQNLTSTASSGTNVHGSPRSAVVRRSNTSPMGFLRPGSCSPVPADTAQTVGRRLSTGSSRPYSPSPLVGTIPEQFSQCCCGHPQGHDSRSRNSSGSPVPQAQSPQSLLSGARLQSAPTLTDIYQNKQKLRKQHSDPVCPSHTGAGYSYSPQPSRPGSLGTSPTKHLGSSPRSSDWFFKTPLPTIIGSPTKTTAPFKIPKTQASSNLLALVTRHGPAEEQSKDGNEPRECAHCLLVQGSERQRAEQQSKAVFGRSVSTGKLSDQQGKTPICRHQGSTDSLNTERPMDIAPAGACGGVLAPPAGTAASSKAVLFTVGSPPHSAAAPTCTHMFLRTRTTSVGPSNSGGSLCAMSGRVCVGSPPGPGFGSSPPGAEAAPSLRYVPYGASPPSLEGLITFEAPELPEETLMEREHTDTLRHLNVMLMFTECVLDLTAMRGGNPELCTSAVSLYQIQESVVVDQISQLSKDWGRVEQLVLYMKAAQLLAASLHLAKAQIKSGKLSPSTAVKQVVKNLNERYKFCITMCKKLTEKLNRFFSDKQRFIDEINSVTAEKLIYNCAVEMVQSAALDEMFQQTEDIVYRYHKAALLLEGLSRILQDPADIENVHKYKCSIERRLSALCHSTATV
Conditions: at 1 µM
Listing of entries alongside the reported residual activity.

# Cpd smiles, residual activity / %
rows = [
    ("CN[C@@H]1C[C@H]2O[C@@](C)([C@@H]1OC)n1c3ccccc3c3c4c(c5c6ccccc6n2c5c31)C(=O)NC4", 2),
    ("CC(C)[C@H](CO)Nc1nc(Nc2cccc(Cl)c2)c2ncn(C(C)C)c2n1", 83),
    ("O=C1Nc2ccc3ncsc3c2/C1=C/c1c[nH]cn1", 37),
    ("COc1ccc2c(c1)/C(=C/c1cnc[nH]1)C(=O)N2", 81),
    ("CCc1nc(-c2ccc(OC)cc2)[nH]c1-c1ccncc1", 115),
    ("CC(C)(C)c1cc(C=C(C#N)C#N)cc(Br)c1O", 113),
]

----------
The following compounds are listed with their measured residual activity values.
Target: Cyclin-dependent kinase 7/ cyclin H (Homo sapiens) (UniProt P51946+P50613)
Conditions: at 1 µM

# Compound, residual activity
rows = [
    ("C[S+]([O-])c1ccc(-c2nc(-c3ccc(F)cc3)c(-c3ccncc3)[nH]2)cc1 (stereo not given)", "118%"),
    ("CC(C)[C@H](CO)Nc1nc(Nc2cccc(Cl)c2)c2ncn(C(C)C)c2n1", "17%"),
    ("COc1ccc2c(c[n+](C)c3c4cc5c(cc4ccc23)OCO5)c1OC", "87%"),
    ("c1cc(-c2cnn3cc(-c4ccc(OCCN5CCCCC5)cc4)cnc23)ccn1", "50%"),
    ("COC(=O)[C@@]1(O)C[C@H]2O[C@]1(C)n1c3ccccc3c3c4c(c5c6ccccc6n2c5c31)C(=O)NC4", "55%"),
]

----------
Target: AMP-activated protein kinase (AMPK) alpha-1/beta-1/gamma-1 (Homo sapiens) (UniProt P54619+Q9Y478+Q13131)
Sequence (P54619 whole entry): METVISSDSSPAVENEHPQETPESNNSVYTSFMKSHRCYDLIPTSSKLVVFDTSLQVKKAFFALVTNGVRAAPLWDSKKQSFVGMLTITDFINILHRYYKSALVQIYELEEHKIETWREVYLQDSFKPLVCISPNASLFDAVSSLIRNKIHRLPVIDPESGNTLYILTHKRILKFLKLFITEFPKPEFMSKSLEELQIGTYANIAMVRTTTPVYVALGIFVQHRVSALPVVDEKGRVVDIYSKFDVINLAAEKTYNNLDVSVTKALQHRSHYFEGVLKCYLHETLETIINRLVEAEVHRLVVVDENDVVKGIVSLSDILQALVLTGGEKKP
Sequence (Q13131 whole entry partner): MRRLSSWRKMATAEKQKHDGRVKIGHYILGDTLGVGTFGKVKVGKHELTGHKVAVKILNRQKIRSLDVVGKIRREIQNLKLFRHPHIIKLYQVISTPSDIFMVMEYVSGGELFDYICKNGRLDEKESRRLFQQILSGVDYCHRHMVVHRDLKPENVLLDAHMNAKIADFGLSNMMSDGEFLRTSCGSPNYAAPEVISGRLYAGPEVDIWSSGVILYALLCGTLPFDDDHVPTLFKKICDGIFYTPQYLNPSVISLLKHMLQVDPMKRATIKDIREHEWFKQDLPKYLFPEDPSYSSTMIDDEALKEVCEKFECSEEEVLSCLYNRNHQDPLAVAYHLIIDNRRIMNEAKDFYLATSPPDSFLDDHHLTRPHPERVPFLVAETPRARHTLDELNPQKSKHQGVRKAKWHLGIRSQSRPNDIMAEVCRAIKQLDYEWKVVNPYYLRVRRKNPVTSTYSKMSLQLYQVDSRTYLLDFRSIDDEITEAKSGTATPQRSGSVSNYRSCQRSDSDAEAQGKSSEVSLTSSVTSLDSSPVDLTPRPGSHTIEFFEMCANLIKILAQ
Sequence (Q9Y478 2-270 partner limits assumed): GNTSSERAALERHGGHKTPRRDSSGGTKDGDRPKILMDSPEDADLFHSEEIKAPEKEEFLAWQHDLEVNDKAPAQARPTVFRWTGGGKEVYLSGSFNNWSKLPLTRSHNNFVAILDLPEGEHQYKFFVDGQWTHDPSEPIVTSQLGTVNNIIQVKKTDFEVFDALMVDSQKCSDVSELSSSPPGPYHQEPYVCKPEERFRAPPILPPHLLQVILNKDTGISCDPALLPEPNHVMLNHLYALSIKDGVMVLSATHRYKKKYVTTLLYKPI
Conditions: at 10 µM
Recorded residual activity values for a group of compounds are listed next.

# Compound, residual activity
data = [
    ("O=C1NC(=O)c2c1c1c3ccccc3n3c1c1c2c2ccccc2n1C1CCC3O1", "71%"),
    ("COC(=O)[C@@]1(O)C[C@H]2O[C@]1(C)n1c3ccccc3c3c4c(c5c6ccccc6n2c5c31)C(=O)NC4", "0%"),
    ("CC(C)(C)c1cc(C=C(C#N)C#N)cc(Br)c1O", "53%"),
    ("C[S+]([O-])c1ccc(-c2nc(-c3ccc(F)cc3)c(-c3ccncc3)[nH]2)cc1 (stereo not drawn)", "94%"),
    ("O=C1Nc2ccc3ncsc3c2/C1=C/c1c[nH]cn1", "2%"),
    ("O=c1[nH]c2ccccc2n1C1CCN(Cc2ccc(-c3nc4cc5[nH]cnc5cc4nc3-c3ccccc3)cc2)CC1", "94%"),
    ("O=[N+]([O-])/C=C/c1ccc2c(c1)OCO2", "80%"),
    ("CC(C)[C@H](CO)Nc1nc(Nc2cccc(Cl)c2)c2ncn(C(C)C)c2n1", "42%"),
]

----------
Quick reference for residual activity among some compounds
Molecular target: Mast/stem cell growth factor receptor Kit (Homo sapiens)
Conditions: at 10 µM
Assay metric: residual activity

# Compound, Assay metric, Result
records = [
    ("CC(C)(C)c1cc(C=C(C#N)C#N)cc(Br)c1O", "residual activity", "102%"),
    ("c1cc(-c2cnn3cc(-c4ccc(OCCN5CCCCC5)cc4)cnc23)ccn1", "residual activity", "2%"),
    ("COc1ccc2c(c[n+](C)c3c4cc5c(cc4ccc23)OCO5)c1OC", "residual activity", "95%"),
    ("O=c1[nH]c2ccccc2n1C1CCN(Cc2ccc(-c3nc4cc5[nH]cnc5cc4nc3-c3ccccc3)cc2)CC1", "residual activity", "87%"),
    ("CCc1nc(-c2ccc(OC)cc2)[nH]c1-c1ccncc1", "residual activity", "104%"),
    ("CC(C)[C@H](CO)Nc1nc(Nc2cccc(Cl)c2)c2ncn(C(C)C)c2n1", "residual activity", "98%"),
    ("O=[N+]([O-])/C=C/c1ccc2c(c1)OCO2", "residual activity", "99%"),
    ("COC(=O)[C@@]1(O)C[C@H]2O[C@]1(C)n1c3ccccc3c3c4c(c5c6ccccc6n2c5c31)C(=O)NC4", "residual activity", "20%"),
    ("O=C1Nc2ccc3ncsc3c2/C1=C/c1c[nH]cn1", "residual activity", "4%"),
    ("C[S+]([O-])c1ccc(-c2nc(-c3ccc(F)cc3)c(-c3ccncc3)[nH]2)cc1 (stereo not given)", "residual activity", "102%"),
]

----------
Target: Serine/threonine-protein kinase 24 (Homo sapiens) (UniProt Q9Y6E0)
Sequence (Q9Y6E0 whole entry, looked up): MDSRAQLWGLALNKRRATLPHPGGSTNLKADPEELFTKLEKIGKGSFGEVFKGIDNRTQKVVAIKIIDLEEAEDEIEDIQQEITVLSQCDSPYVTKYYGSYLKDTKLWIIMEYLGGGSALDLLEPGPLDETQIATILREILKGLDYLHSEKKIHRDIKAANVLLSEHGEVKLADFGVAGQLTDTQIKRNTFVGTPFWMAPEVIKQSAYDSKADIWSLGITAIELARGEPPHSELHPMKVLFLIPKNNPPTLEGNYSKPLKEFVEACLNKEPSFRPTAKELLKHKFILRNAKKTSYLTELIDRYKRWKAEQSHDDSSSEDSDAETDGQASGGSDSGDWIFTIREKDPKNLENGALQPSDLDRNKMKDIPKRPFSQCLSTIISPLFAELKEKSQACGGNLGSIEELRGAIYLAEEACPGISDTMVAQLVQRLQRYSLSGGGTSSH
Conditions: at 1 µM
# residual activity values compiled below

# Molecule, Measure unit, residual activity
rows = [
    ("COc1cc(OC)c(/C=C2\\C(=O)Nc3ccccc32)c(OC)c1", "%", 80),
    ("C[S+]([O-])c1ccc(-c2nc(-c3ccc(F)cc3)c(-c3ccncc3)[nH]2)cc1 (stereo not drawn)", "%", 115),
    ("O=C1Nc2ccc3ncsc3c2/C1=C/c1c[nH]cn1", "%", 3),
]

----------
// residual activity lookup, one value per entry
Biological target: Misshapen-like kinase 1 (Homo sapiens) (UniProt Q8N4C8)
Sequence (Q8N4C8 whole entry, looked up): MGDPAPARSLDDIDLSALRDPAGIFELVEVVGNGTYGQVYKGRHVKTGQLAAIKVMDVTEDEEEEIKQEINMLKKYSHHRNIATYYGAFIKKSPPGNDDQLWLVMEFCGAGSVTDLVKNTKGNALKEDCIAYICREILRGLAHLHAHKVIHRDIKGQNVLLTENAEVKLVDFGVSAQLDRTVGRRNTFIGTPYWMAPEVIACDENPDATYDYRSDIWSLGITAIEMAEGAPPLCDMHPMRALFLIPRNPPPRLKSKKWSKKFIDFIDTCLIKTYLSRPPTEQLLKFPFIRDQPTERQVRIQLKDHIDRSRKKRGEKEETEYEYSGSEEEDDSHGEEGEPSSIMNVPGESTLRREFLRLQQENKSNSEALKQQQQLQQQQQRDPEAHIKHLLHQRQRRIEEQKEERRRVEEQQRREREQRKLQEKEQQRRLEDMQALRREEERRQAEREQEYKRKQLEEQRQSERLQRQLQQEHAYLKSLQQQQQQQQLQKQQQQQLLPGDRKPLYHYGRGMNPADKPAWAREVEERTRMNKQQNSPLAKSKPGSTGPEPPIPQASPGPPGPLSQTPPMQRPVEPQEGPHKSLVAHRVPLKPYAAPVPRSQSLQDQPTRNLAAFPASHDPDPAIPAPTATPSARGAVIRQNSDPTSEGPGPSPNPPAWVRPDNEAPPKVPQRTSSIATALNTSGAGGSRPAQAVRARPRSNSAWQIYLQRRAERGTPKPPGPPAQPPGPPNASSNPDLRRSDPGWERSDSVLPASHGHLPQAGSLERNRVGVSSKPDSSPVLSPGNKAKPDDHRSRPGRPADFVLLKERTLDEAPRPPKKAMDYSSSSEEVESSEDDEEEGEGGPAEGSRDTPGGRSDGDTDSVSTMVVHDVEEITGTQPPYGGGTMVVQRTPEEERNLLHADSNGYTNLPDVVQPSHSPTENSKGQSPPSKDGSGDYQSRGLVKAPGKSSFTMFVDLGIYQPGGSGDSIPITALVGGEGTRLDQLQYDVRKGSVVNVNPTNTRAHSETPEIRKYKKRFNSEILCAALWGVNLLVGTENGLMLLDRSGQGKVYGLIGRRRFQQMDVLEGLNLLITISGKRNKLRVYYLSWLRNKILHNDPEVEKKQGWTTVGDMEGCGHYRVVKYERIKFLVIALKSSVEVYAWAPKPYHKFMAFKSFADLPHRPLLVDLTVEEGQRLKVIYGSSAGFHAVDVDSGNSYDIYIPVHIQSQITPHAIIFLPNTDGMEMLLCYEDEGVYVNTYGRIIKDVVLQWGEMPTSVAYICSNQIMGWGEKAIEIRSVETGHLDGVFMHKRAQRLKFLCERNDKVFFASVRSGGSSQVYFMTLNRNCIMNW
Details: at 1 µM

# Cpd smiles, residual activity [%]
measured = [
    ("COC(=O)[C@@]1(O)C[C@H]2O[C@]1(C)n1c3ccccc3c3c4c(c5c6ccccc6n2c5c31)C(=O)NC4", 0),
    ("COc1ccc2c(c[n+](C)c3c4cc5c(cc4ccc23)OCO5)c1OC", 97),
    ("O=C1NC(=O)c2c1c1c3ccccc3n3c1c1c2c2ccccc2n1C1CCC3O1", 86),
    ("N/C(=N\\[N+](=O)[O-])N/N=C\\c1ccc(-c2cccc([N+](=O)[O-])c2)o1", 99),
    ("O=c1[nH]c2ccccc2n1C1CCN(Cc2ccc(-c3nc4cc5[nH]cnc5cc4nc3-c3ccccc3)cc2)CC1", 97),
    ("COc1cc(OC)c(/C=C2\\C(=O)Nc3ccccc32)c(OC)c1", 105),
    ("COc1cc2ncnc(Nc3ccc(OCc4ccccc4)cc3)c2cc1OC", 87),
]

----------
Biological target: Tyrosine-protein kinase ZAP-70 (Homo sapiens) (UniProt P43403)
Sequence (P43403 whole entry): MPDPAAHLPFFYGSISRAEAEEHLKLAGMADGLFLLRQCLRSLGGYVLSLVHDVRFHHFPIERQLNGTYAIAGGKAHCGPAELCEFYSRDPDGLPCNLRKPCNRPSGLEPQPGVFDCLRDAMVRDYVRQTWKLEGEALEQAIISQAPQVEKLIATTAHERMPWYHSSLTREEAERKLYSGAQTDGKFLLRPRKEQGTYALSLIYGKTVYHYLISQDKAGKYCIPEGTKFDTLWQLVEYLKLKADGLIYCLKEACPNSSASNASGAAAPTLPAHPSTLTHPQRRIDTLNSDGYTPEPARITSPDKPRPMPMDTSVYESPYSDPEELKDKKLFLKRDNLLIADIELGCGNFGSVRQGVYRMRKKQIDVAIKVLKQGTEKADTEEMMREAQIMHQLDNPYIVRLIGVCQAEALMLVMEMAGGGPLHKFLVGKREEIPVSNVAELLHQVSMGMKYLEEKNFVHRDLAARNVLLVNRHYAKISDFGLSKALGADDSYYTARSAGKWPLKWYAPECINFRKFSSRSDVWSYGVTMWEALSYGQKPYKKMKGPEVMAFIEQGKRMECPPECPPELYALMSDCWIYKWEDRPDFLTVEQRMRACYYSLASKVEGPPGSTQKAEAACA
Conditions: at 10 µM
Documented residual activity across a set of compounds

# Compound, residual activity
data = [
    ("CO[C@H]1[C@@H](OC)C[C@H](C)[C@@H](OC)C2=CC(=O)C=C(NC(=O)/C(C)=C/C=C/[C@H](OC)[C@@H](OC(N)=O)/C(C)=C/[C@@H]1C)C2=O", "112%"),
    ("O=C1NC(=O)c2c1c1c3ccccc3[nH]c1n1cncc21", "102%"),
    ("O=C(c1cc2cc(O)ccc2[nH]1)c1cc2cc(O)ccc2[nH]1", "109%"),
    ("CC(C)[C@H](CO)Nc1nc(Nc2cc(N)cc(Cl)c2)c2ncn(C(C)C)c2n1", "98%"),
    ("COc1cc2ncnc(Nc3ccc(O)c(Br)c3)c2cc1OC", "105%"),
    ("Cc1nc2cc3nc(-c4cccs4)cnc3cc2n1C", "115%"),
    ("O=[N+]([O-])/C=C/c1ccc2c(c1)OCO2", "127%"),
    ("Oc1c2ccccc2c2c3c(cccc13)N=N2", "98%"),
    ("COc1cc2nccc(Oc3ccc(NC(=O)Nc4cc(C)on4)c(Cl)c3)c2cc1OC", "107%"),
    ("O=[N+]([O-])c1ccc(-c2nc(-c3ccc(F)cc3)c(-c3ccncc3)[nH]2)cc1", "122%"),
    ("COc1cc2ncnc(Nc3ccc(OCc4ccccc4)cc3)c2cc1OC", "107%"),
    ("CC(C)n1cnc2/c(=N/c3cccc(Cl)c3)nc(NCCO)[nH]c21", "117%"),
    ("Fc1ccc(-c2nc3n(c2-c2ccncc2)CCS3)cc1", "124%"),
    ("CC#CC(=O)Nc1cc2c(Nc3ccc(F)c(Cl)c3)ncnc2cn1", "100%"),
    ("Cn1nc2c3c(cccc31)C(=O)c1ccccc1-2", "85%"),
    ("CC(=O)c1ccc(N2CCOCC2)cc1O", "86%"),
    ("O=C(Nc1cccc(Nc2cc(Nc3cccc(C(F)(F)F)c3)ncn2)c1)C1CC1", "101%"),
    ("Nc1ncnc2c1c(-c1ccc(Oc3ccccc3)cc1)cn2C1CCCC1", "99%"),
    ("O=c1[nH]c2ccccc2n1C1CCN(Cc2ccc(-c3nc4cc5[nH]cnc5cc4nc3-c3ccccc3)cc2)CC1", "98%"),
    ("O=C(Nc1cccc(Nc2nccc(Nc3cccc(C(F)(F)F)c3)n2)c1)C1CC1", "116%"),
    ("COc1ccc2c(c1)c(C1=C(c3c[nH]c4ccccc34)C(=O)NC1=O)cn2CCCN(C)C", "120%"),
    ("CCN(CC)CCNC(=O)c1c(C)[nH]c(/C=C2\\C(=O)Nc3ccc(Cl)cc32)c1C", "77%"),
    ("C[S+]([O-])c1ccc(-c2nc(-c3ccc(F)cc3)c(-c3ccncc3)[nH]2)cc1 (configuration not stated)", "130%"),
    ("Nc1nccc(-c2c(-c3ccc(F)cc3)ncn2C2CCNCC2)n1", "124%"),
    ("CCn1cnc2c(Nc3cccc(Cl)c3)nc(N[C@@H]3CCCC[C@@H]3N)nc21", "95%"),
    ("O=C(Nc1ccc(Cl)cc1)c1ccccc1NCc1ccncc1", "142%"),
    ("CC(C)(C)n1nc(Cc2cccc3ccccc23)c2c(N)ncnc21", "110%"),
    ("Oc1ccc(-c2nc(-c3ccc(F)cc3)c(-c3ccncc3)[nH]2)cc1", "119%"),
    ("Oc1n[nH]c2nnc(-c3c(-c4ccccc4)nn4ccccc34)cc12", "99%"),
    ("N#Cc1cnc2cnc(NCc3cccnc3)cc2c1Nc1ccc(F)c(Cl)c1", "38%"),
    ("COc1ccc(C(=O)Nc2sc3c(c2C(N)=O)CCCC3)cc1OC", "114%"),
    ("O=c1cc(N2CCNCC2)oc2c(-c3ccccc3)cccc12", "99%"),
    ("N#C/C(=C\\c1ccc(O)c(O)c1)C(=O)NCc1ccccc1", "129%"),
    ("Ic1cccc(CSc2nnc(-c3ccncc3)o2)c1", "102%"),
    ("NC(=O)c1ccc2[nH]c(-c3ccc(Oc4ccc(Cl)cc4)cc3)nc2c1", "96%"),
    ("COc1cc2ncnc(N3CCN(C(=O)Nc4ccc(Oc5ccccc5)cc4)CC3)c2cc1OC", "98%"),
    ("Cc1ccc(NC2=CC(=O)c3sc(C)nc3C2=O)cc1", "96%"),
    ("Cn1c2ccccc2c2c3c(c4c5ccccc5n(CCC#N)c4c21)CNC3=O", "111%"),
    ("O=C1NC(=O)c2c1c1c3ccccc3[nH]c1c1[nH]c3cc(Br)ccc3c21", "90%"),
    ("CO[C@@H]1[C@H](N(C)C(=O)c2ccccc2)C[C@H]2O[C@]1(C)n1c3ccccc3c3c4c(c5c6ccccc6n2c5c31)C(=O)NC4", "60%"),
    ("O=C1Nc2ccc(Cl)cc2/C1=C/c1cc(Cl)c(O)c(Cl)c1", "100%"),
    ("O=c1c2ccccc2[nH]c(=S)n1CCN1CCC(=C(c2ccc(F)cc2)c2ccc(F)cc2)CC1", "94%"),
]
